I'd appreciate it if you could supply pIC50 values for the items below.
target: LasB (Pseudomonas aeruginosa); assay: biochemical; design: species or system P. aeruginosa; settings: IC50 against LasB
Sequence (Q02RJ6 198-498): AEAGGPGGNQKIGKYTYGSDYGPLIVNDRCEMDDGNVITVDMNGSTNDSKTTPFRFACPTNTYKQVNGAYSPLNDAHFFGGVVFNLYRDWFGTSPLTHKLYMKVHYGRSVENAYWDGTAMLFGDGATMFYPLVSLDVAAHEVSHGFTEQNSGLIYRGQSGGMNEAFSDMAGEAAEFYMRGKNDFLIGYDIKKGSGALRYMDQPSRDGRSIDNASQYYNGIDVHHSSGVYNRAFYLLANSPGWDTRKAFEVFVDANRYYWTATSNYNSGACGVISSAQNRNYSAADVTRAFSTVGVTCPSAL
Remember the convention: pIC50 equals -log10 of concentration in molar.

Entry under test: CC(C)CC(C(=O)Nc1cnc(Cl)nc1)P(=O)(O)O (centres unmarked) [Example 86] . Its pIC50 was 6.30

Entry under test: Cc1cccc(NC(=O)C(S)Cc2ccccc2)c1 (centres unmarked) [Example 7] . Its pIC50 was 6.01

Entry under test: Cc1ccc(NC(=O)C(CC(C)C)n2ccnn2)cc1 (centres unmarked) [Example 174] . Its pIC50 was 5.55

Entry under test: COC(=O)c1ccc(NC(=O)C(CC(C)C)P(=O)(O)O)cn1 (centres unmarked) [Example 85] . Its pIC50 was 6.71

Entry under test: CC(=O)c1ccc(NC(=O)C(S)C(C)C)cc1 (centres unmarked) [Example 23] . Its pIC50 was 4.66

Hello, the source for this data is patent US20230321123A1, in case you need it.
